Reported AUC(0-t) values for a set of compounds
assay: AUClast in C57BL/6 mouse brain at 10 mg/kg administered through oral gavage; assay type: ADME, organism-based; design: dose 10 mg/kg, time 0 - last, route oral
Measured Parameter: AUC(0-t) (ng·h/mL)

• CN1C(=O)c2c(nn(Cc3ccc(-c4cccc(F)n4)cc3)c2Sc2ccccc2)N2C1=N[C@@H]1CCC[C@@H]12 = 81
• CN1C(=O)c2c(nn(Cc3ccc(C(F)(F)F)cc3)c2Nc2ccccc2)N2C1=N[C@@H]1CCC[C@@H]12 = 548
• CN1C(=O)c2c(nn(Cc3ccc(-c4cccc(F)n4)cc3)c2Oc2ccc(F)cc2)N2C1=N[C@@H]1CCC[C@@H]12 = 102
• CN1C(=O)c2c(nn(Cc3ccc(-c4cccc(F)n4)cc3)c2Nc2ccccc2)N2C1=N[C@@H]1CCC[C@@H]12.O=P(O)(O)O [LENRISPODUN PHOSPHATE] = 588

---

experiment: Selectivity ratio of Ki for recombinant full lenght human PDE4A to bovine brain PDE1
Rule: criterion met for Ratio Ki not less than 200, criterion not met for anything less.

* CN1C(=O)c2c(nn(Cc3ccc(-c4ncccc4F)cc3)c2Nc2ccccc2)N2C1=N[C@@H]1CCC[C@@H]12 | criterion met
* CN1C(=O)c2c(nn(Cc3ccc(-c4cccc(F)n4)cc3)c2N(C)c2ccccc2)N2C1=N[C@@H]1CCC[C@@H]12 | criterion not met
* CNc1c2c(nn1Cc1ccc(-c3cccc(F)n3)cc1)N1C(=N[C@@H]3CCC[C@@H]31)N(C)C2=O | criterion not met
* C[C@@H]1CN2C(=N1)N(C)C(=O)c1c2nn(Cc2ccc(-c3ccccc3)cc2)c1Nc1ccccc1 | criterion met
* CN1C(=O)c2c(nn(Cc3ccc(-c4ccccc4)cc3)c2Nc2ccccc2)N2C[C@@H](Cc3ccccc3)N=C12 | criterion not met
* CN1C(=O)c2c(nn(Cc3ccc(-c4cccc(F)n4)cc3)c2NC2CCCC2)N2C1=N[C@@H]1CCC[C@@H]12 | criterion met
* CC(C)CNc1c2c(nn1Cc1ccc(-c3cccc(F)n3)cc1)N1C(=N[C@@H]3CCC[C@@H]31)N(C)C2=O | criterion met
* CN1C(=O)c2c(nn(Cc3ccc(-c4cccc(F)n4)cc3)c2NCc2ccccc2)N2C1=N[C@@H]1CCC[C@@H]12 | criterion met
* CN1C(=O)c2c(nn(Cc3ccc(-c4ccccc4)cc3)c2Nc2ccccc2)N2CCN=C12 | criterion met

---

test: Inhibition of bovine brain PDE1 using fluorescent labeled cGMP as substrate after 15 mins by IMAP assay; set-up: species or system Bos taurus
Reported Ki values for a set of compounds
Measured Parameter: Ki

* CN1C(=O)c2c(nn(Cc3ccc(C4CCCN4)cc3)c2Nc2ccccc2)N2C1=N[C@@H]1CCC[C@@H]12 (stereo partly specified) | 0.0016 µM
* CN1C(=O)c2c(nn(Cc3ccc(-c4cccc(F)n4)cc3)c2N(C)c2ccccc2)N2C1=N[C@@H]1CCC[C@@H]12 | 0.031 µM
* O=C1NC2=N[C@@H]3CCC[C@@H]3N2c2nn(Cc3ccc(C(F)(F)F)cc3)c(Nc3ccccc3)c21 | 0.29 µM
* CN1C(=O)c2c(nn(Cc3ccc(-c4ccc(F)cc4)cc3)c2Nc2ccccc2)N2C1=N[C@@H]1CCC[C@@H]12 | 0.00041 µM
* CN1C(=O)c2c(nn(Cc3ccc(-c4cccc(F)n4)cc3)c2NC2CCCC2)N2C1=N[C@@H]1CCC[C@@H]12 | 0.024 µM
* CN1C(=O)c2c(nn(Cc3ccc(-c4cccc(F)n4)cc3)c2N2CCCC2)N2C1=N[C@@H]1CCC[C@@H]12 | 0.16 µM
* CN1C(=O)c2c(nn(Cc3ccc(-c4ccccc4)cc3)c2Nc2ccccc2)N2CCN=C12 | 0.029 µM
* CN1C(=O)c2c(nn(Cc3ccc(-c4ccccn4)cc3)c2Nc2ccccc2)N2C1=N[C@H]1CCC[C@H]12 | 0.0053 µM
* CN1C(=O)c2c(nn(Cc3ccc(C(F)(F)F)cc3)c2Nc2ccc(F)cc2)N2C1=N[C@@H]1CCC[C@@H]12 | 0.00063 µM
* CN1C(=O)c2c(nn(Cc3ccc(S(N)(=O)=O)cc3)c2Nc2ccccc2)N2C1=N[C@@H]1CCC[C@@H]12 | 0.0014 µM
* CN1C(=O)c2c(nn(Cc3ccc(-c4cccc(F)n4)cc3)c2Oc2ccccc2)N2C1=N[C@@H]1CCC[C@@H]12 | 0.003 µM
* CN1Cc2c(nn(Cc3ccc(C(F)(F)F)cc3)c2Nc2ccccc2)N2C1=N[C@@H]1CCC[C@@H]12 | 0.044 µM
* CC(C)[C@@H]1CN2C(=N1)N(C)C(=O)c1c2nn(Cc2ccc(-c3ccccc3)cc2)c1Nc1ccccc1 | 0.0023 µM
* CN1C(=O)c2c(nn(Cc3ccc(-c4ccccc4)cc3)c2Nc2ccccc2)N2CCCN=C12 | 0.065 µM
* CN1C(=O)c2c(Nc3ccccc3)n[nH]c2N2C1=N[C@@H]1CCC[C@@H]12 | 1.4 µM
* CN1C(=O)c2c(nn(Cc3ccc(-c4ccccc4)cc3)c2Nc2ccccc2)N2C[C@@H](CO)N=C12 | 0.006 µM

---

Reported Cmax values for a set of compounds
assay: Cmax in Sprague-Dawley rat at 9.75 mg/kg administered through oral gavage; type: ADME, organism-based; design: dose 9.75 mg/kg, route oral; conditions: in vivo
Measured Parameter: Cmax (ng/mL)

* CN1C(=O)c2c(nn(Cc3ccc(C(F)(F)F)cc3)c2Nc2ccccc2)N2C1=N[C@@H]1CCC[C@@H]12 | 75
* CN1C(=O)c2c(nn(Cc3ccc(-c4cccc(F)n4)cc3)c2Nc2ccccc2)N2C1=N[C@@H]1CCC[C@@H]12.O=P(O)(O)O [LENRISPODUN PHOSPHATE] | 252
* CN1C(=O)c2c(nn(Cc3ccc(-c4ccccc4)cc3)c2Nc2ccccc2)N2C1=N[C@@H]1CCC[C@@H]12 | 102
* CN1C(=O)c2c(nn(Cc3ccc(C(F)(F)F)cc3)c2Nc2ccc(F)cc2)N2C1=N[C@@H]1CCC[C@@H]12 | 42
* CN1C(=O)c2c(nn(Cc3ccc(-c4ccccn4)cc3)c2Nc2ccccc2)N2C1=N[C@@H]1CCC[C@@H]12 | 158

---

assay: Lipophilicity, logD of compound at pH 7.4; assay type: physicochemical; settings: buffer
Reported logD values for a set of molecules
Measured Parameter: logD

- CN1C(=O)c2c(nn(Cc3ccc(C(F)(F)F)cc3)c2Nc2ccccc2)N2C1=N[C@@H]1CCC[C@@H]12: 4.47
- CN1C(=O)c2c(nn(Cc3ccc(-c4cccc(F)n4)cc3)c2Cc2ccccc2)N2C1=N[C@@H]1CCC[C@@H]12: 4.96
- CN1C(=O)c2c(nn(Cc3ccc(-c4cccc(F)n4)cc3)c2Cc2ccc(F)cc2)N2C1=N[C@@H]1CCC[C@@H]12: > 5
- CN1C(=O)c2c(nn(Cc3ccc(-c4cccc(F)n4)cc3)c2Oc2ccccc2)N2C1=N[C@@H]1CCC[C@@H]12: 4.61
- CN1C(=O)c2c(nn(Cc3ccc(-c4cccc(F)n4)cc3)c2Sc2ccccc2)N2C1=N[C@@H]1CCC[C@@H]12: > 5
- CN1C(=O)c2c(nn(Cc3ccc(-c4cccc(F)n4)cc3)c2Oc2ccc(F)cc2)N2C1=N[C@@H]1CCC[C@@H]12: 4.77
- CN1C(=O)c2c(nn(Cc3ccc(-c4ccccn4)cc3)c2Nc2ccccc2)N2C1=N[C@@H]1CCC[C@@H]12: 3.54
- CN1C(=O)c2c(nn(Cc3ccc(-c4cccc(F)n4)cc3)c2Nc2ccccc2)N2C1=N[C@@H]1CCC[C@@H]12.O=P(O)(O)O [LENRISPODUN PHOSPHATE]: 4.41
- CN1C(=O)c2c(nn(Cc3ccc(-c4ccccc4)cc3)c2Nc2ccccc2)N2C1=N[C@@H]1CCC[C@@H]12: > 5
- CN1C(=O)c2c(nn(Cc3ccc(C(F)(F)F)cc3)c2Nc2ccc(F)cc2)N2C1=N[C@@H]1CCC[C@@H]12: 4.57
- CN1C(=O)c2c(nn(Cc3ccc(S(N)(=O)=O)cc3)c2Nc2ccccc2)N2C1=N[C@@H]1CCC[C@@H]12: 1.96

---

Reported pKi values for a set of molecules
target: cGMP-inhibited 3',5'-cyclic phosphodiesterase 3B (Homo sapiens, UniProt Q13370); assay: Inhibition of recombinant full length human PDE3B using fluorescent labeled cAMP as substrate after 15 mins by IMAP assay
Sequence (Q13370 whole entry): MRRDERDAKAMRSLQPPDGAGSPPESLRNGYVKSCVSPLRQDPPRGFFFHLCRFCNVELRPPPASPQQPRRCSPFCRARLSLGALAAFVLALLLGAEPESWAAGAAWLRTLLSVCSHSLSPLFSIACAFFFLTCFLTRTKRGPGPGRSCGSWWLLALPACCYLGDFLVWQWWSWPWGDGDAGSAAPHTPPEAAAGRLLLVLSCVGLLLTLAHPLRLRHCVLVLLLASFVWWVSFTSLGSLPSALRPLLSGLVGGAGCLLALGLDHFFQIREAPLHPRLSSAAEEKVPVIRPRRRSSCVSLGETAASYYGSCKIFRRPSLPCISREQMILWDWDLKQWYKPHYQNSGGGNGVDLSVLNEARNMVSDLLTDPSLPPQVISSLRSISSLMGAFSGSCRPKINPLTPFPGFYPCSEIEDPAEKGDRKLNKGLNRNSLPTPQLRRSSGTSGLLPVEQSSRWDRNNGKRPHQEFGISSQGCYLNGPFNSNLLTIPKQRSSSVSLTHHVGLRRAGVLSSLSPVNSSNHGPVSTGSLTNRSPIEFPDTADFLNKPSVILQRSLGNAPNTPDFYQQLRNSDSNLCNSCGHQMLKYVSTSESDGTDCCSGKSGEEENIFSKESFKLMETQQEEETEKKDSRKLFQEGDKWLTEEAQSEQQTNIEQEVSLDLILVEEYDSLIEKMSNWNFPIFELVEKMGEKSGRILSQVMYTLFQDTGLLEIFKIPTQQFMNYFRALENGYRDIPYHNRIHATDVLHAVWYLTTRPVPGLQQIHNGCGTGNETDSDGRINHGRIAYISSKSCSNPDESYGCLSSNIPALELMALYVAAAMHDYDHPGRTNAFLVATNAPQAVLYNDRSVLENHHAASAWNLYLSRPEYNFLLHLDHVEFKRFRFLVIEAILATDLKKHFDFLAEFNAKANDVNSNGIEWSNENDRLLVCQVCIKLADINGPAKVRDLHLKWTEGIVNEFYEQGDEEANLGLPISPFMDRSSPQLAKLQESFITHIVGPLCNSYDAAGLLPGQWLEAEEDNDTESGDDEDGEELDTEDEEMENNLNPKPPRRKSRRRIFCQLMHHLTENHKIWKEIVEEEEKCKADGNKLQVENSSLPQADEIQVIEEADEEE
pKi: −log10 of the molar value.
Measured Parameter: pKi

• CN1C(=O)c2c(nn(Cc3ccc(C(F)(F)F)cc3)c2Nc2ccccc2)N2C1=N[C@@H]1CCC[C@@H]12 = 4.52
• CN1C(=O)c2c(nn(Cc3ccc(-c4ccccc4)cc3)c2Nc2ccccc2)N2C1=N[C@@H]1CCC[C@@H]12 = 5.82
• CN1C(=O)c2c(nn(Cc3ccc(-c4ccccn4)cc3)c2Nc2ccccc2)N2C1=N[C@@H]1CCC[C@@H]12 = 5.92
• CN1C(=O)c2c(nn(Cc3ccc(C(F)(F)F)nc3)c2Nc2ccccc2)N2C1=N[C@@H]1CCC[C@@H]12 = 4.38
